Please provide measured PBM binding z-score for the entries that follow.
- Tested on: PPARa:RXRa (NR concentration 270 nM, RXRa partner concentration 90 nM)
- experiment: PBM binding z-score (relative to random genomic background probes); higher = stronger binding; sequences stand for … in GC…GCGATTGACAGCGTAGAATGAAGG

Q: Tell us which PBM binding z-score value is on record for CTCGCAAGGTCGGTTGAGGTGAGTATACGGATAA
Ans: 1.3

Q: Answer with the recorded PBM binding z-score of ACTCGGAGGACAAAGGTCAAAGCTACGCCAGTGA only.
Ans: 6.23

Q: Identify measured PBM binding z-score associated with CAAACTAGGTGACAGAGGTCAAAGTCCGTGCGTA
Ans: 5.75

Q: Given ACTATTAGTTGAGTTAGGGCAACCGATACGACGC , respond with its PBM binding z-score.
Ans: -0.0901

Q: Please list PBM binding z-score recorded for the sequence GCTTGTCGATCAAGGTTAAGAAAGACTAAGCTAA
Ans: 1.17

Q: Look up and report measured PBM binding z-score for this entry: TCATATAGGTAAACAGGTGAGAGTCCGTAAGTTA
Ans: 2.04

Q: Return PBM binding z-score for the following sequence: TCGAGTAGGTTAGTCGTGGCATTCAGCCAACATA
Ans: 0.293

Q: Please give measured PBM binding z-score of the following entry: CAAACTAGGCCACGAAAGGTCAAAGTCGAATGAC
Ans: 6.2

Q: Let me know recorded PBM binding z-score for ATGTCTAGGTAAAGTTCAGTGAAAGATCGATAGA , thanks.
Ans: 2.56

Q: # return recorded PBM binding z-score for entry ATCGATAGGTCGACGAGGTGAGTATACACCGTTT
Ans: 1.69

Q: Supply reported PBM binding z-score belonging to this sequence: CCTAGTTGGTCAAGGTCACCCACGCTATAGGTAC
Ans: 4.14

Q: Give recorded PBM binding z-score. CTCGAAAGGTCGTGCTCACGTGAGTATACCAAAC
Ans: 5.07

Q: Please look at this sequence and report its PBM binding z-score: CCTGCTAGGTCATGGTCAGTTAATCTACAGTATG
Ans: 3.48

Q: Look up PBM binding z-score of TCTTGTGGATCAGCAGGTTAAGAAAGCTGGCCAA and report it.
Ans: 0.761

Q: State its PBM binding z-score: ATCTCTAAGTAACAAGTTCAGTGAAAGAGAGGAC
Ans: 0.572

Q: Kindly indicate its recorded PBM binding z-score. Item: CCTAGCAGGCCAATCTGGGTTACTCAAGGCTTGA
Ans: 1.18

Q: Provide only the value of recorded PBM binding z-score for TCTCGGAGGACACGATGGTCAGAGCTTTCCAGAG
Ans: -0.0198

Q: Assign PBM binding z-score to the following record: TCTTGTAGATCAACAGGAGGTAAAGAAAGATCGA
Ans: 0.461

Q: # return recorded PBM binding z-score for entry ATATGAAGGTTACATCCGGGTCATTCAGGCTATG
Ans: 3.69

Q: Entry AATACAGGGTCATCGTAGGCCAGAGGACGCACAG needs its PBM binding z-score filled in; supply it.
Ans: 5.96

Q: Determine its reported PBM binding z-score: TCGAGTAGGTTACCACTGGGGCATTCAGCTTTCT
Ans: 1.04

Q: Annotate the sequence GGAACGAGGGCAAAGTTGATCGCATCTGTCGACG with its measured PBM binding z-score.
Ans: 3.82

Q: Tell us which PBM binding z-score value is on record for GCGACTGGGGCAAAGCAGGTTATCATAAGGTTGG
Ans: 1.41

Q: Recall and state the measured PBM binding z-score for CGTCAAAGTACAACTAAGGTAACGTAAAGCACGC .
Ans: 0.548

Q: Give a short answer stating reported PBM binding z-score for CGAACTAGGTCAAGGACAGGGAATCTCCGCACGC .
Ans: 4.52

Q: Name the recorded PBM binding z-score of the item CCCTACGGGTCACTGACAGGTTATAGCATTTGGA in your answer.
Ans: 5.1

Q: Answer with the recorded PBM binding z-score of GGAACCAGGGCAAGTTGATAGCAGAGTTTGATGG only.
Ans: 1.54

Q: Query PBM binding z-score for ATCTCTAGGTAAAAATTCAGTGAATCCCGAGGAT
Ans: 0.272

Q: Give the value of PBM binding z-score reported for the following: CCTGACAGGTGAAAGGTAACTCAGTCTGGTACGC
Ans: 3.38

Q: For the sequence ATCTCTAGGTAACAAGTTAAGTGAAAGAGAGGAC , report PBM binding z-score.
Ans: 1.55

Q: Indicate its recorded PBM binding z-score; the sequence in question is ACTATTAGTTGACTTAGGGCAAGCGATACGACGC
Ans: 0.124

Q: Complete the entry with PBM binding z-score for CAGCCTAGCTCAGGGCCAGTATAGGAGGAACGTT
Ans: -1.21

Q: Could you please provide reported PBM binding z-score for GGAACGAGGGCATTCGAGTTGATAGCGTGGCGAT ? Thanks!
Ans: 1.35

Q: For the sequence AGAATGAGGTAATACGTAGATCAGGGAAGAAAGT , report PBM binding z-score.
Ans: 0.49

Q: Identify PBM binding z-score associated with the sequence GCTAGGAGGCCATTTGGGTCACTCAATGACGGGC
Ans: 1.73

Q: Name the recorded PBM binding z-score of the item ATATGTAGGTTAAGGCTCATTCAGGTTGGTTCGC in your answer.
Ans: 3.43

Q: Fill in reported PBM binding z-score for this entry: TCATATAGGTAAATGCTAAGTGAAAGTCCGATCT
Ans: 1.17

Q: Quote PBM binding z-score reported for TCTATTAGTTGAAGGGCAACGGACGAGTCCGTTT please.
Ans: 1.06

Q: Give the value of PBM binding z-score reported for the following: ATGTCTAGGTAAAGATAGTTCAGTGAATGCAAAT
Ans: 0.376

Q: Item GCTTACGGGTCACAGGTTATAGCATGAATAGAAT : provide PBM binding z-score
Ans: 5.75

Q: Determine its reported PBM binding z-score: GCTCGGATGACAAGGTCAGAGCTTTGTCCGTAGA
Ans: 1.93

Q: Respond only with PBM binding z-score recorded for TAGCCTAGGTCATTCAGGAGCCAGTATAGAAAGC
Ans: 3.57

Q: State, in one line, measured PBM binding z-score of TCATATAGGTAAATGCTAGGTGAAAGTGCGATCT
Ans: 1.87

Q: Supply measured PBM binding z-score of AGAATGAGGTTACCAAAGATCAGAGAAACGCTTG in your reply.
Ans: 3.32

Q: Please supply the value of reported PBM binding z-score for the item CTCGAAAGGTCGGTAGAGGTGAGTATACGGATAA
Ans: 2.86

Q: Respond only with PBM binding z-score recorded for TAGCCTAGGTCATGGGCCAGTATCCCACGCGAAC
Ans: 4.04

Q: Identify measured PBM binding z-score associated with GCCACTGGGGCATCAGCAGGTTACCATAACTTAA
Ans: 1.28

Q: Return PBM binding z-score (reported value) for this sequence: ATTTACGGGTCAACGAGGTTATAGCACGCGTATA
Ans: 6.1

Q: For the sequence GCAGACAGGTTAAACGCAGGTAACTCAGGGTGGC , report PBM binding z-score.
Ans: 1.7

Q: Identify measured PBM binding z-score corresponding to CGTCCAAGGTCAATGCTGGGTCAGTGAAAGCATT
Ans: 5.14

Q: Read off the recorded PBM binding z-score for ATACCAAGGTGATCGTGAGGTCGGTGATACTAAC
Ans: 0.78
